- Test system: MDA-N
- Experiment description: NCI tumour cell line growth inhibition, 48 h
The source made the active and inactive calls. No stated cut-off is given here; in the data, active = GI50 up to about 1.1 µM and inactive = higher.
Outcome codes: 1.0 for active, 0.0 for inactive

{"Compound": "COC(=O)[C@]12CCC(=O)N1[C@H](C(=O)O)Cc1c2[nH]c2ccccc12", "Assigned class": 0.0}
{"Compound": "CCCC(=O)NC1CCc2cc(OC)c(OC)c(OC)c2-c2ccc(OC)c(=O)cc21 (configuration not stated)", "Assigned class": 1.0}
{"Compound": "CN(C)c1ccc(/C=C/C(=O)c2cc(C(C)(C)C)c(O)c(C(C)(C)C)c2)cc1", "Assigned class": 1.0}
{"Compound": "O=C(C[N+]12CN3CN(CN(C3)C1)C2)c1ccc(-c2ccccc2)cc1", "Assigned class": 0.0}
{"Compound": "N#C/C(=C\\Nc1ccccn1)C(=O)C1CC1", "Assigned class": 0.0}
{"Compound": "Cc1ccc(C)c(COCCOCn2cc(Br)c(N)nc2=O)c1", "Assigned class": 0.0}
{"Compound": "O=c1[nH]nc(Cc2ccccc2)n1CCCl", "Assigned class": 0.0}
{"Compound": "C[C@H](CCc1nc(C#N)c(N)o1)[C@H]1CC[C@H]2[C@@H]3[C@@H](O)CC4C[C@@H](O)CC[C@]4(C)[C@H]3C[C@@H](O)[C@]12C (some centres not stated)", "Assigned class": 0.0}
{"Compound": "O=C(CCCCCCCCC(=O)N1C(=O)CC(=O)N(c2ccccc2)C1=S)N1C(=O)CC(=O)N(c2ccccc2)C1=S", "Assigned class": 0.0}
{"Compound": "N#CC(C#N)=Cc1c(O)ccc2ccccc12", "Assigned class": 0.0}
{"Compound": "COc1cc2c(cc1OC)C(Cl)C(c1ccc(Br)cc1)=C2Cl (configuration not stated)", "Assigned class": 0.0}
{"Compound": "O=c1[nH]nc(Cc2ccccc2)n1/N=C/c1ccc(/C=N/n2c(Cc3ccccc3)n[nH]c2=O)cc1", "Assigned class": 0.0}
{"Compound": "CCCCC1c2c([nH]c3ccccc23)C2C(=O)N(c3ccc(OC)cc3)C(=O)C2C1CCC (configuration not stated)", "Assigned class": 0.0}
{"Compound": "OCCCCn1cc(Cn2ncc3c(SCc4ccccc4)ncnc32)nn1", "Assigned class": 0.0}
{"Compound": "Cc1c2c(n3c(nc4ccccc43)c1C#N)NCC2", "Assigned class": 0.0}
{"Compound": "CCCSc1ccc2[nH]c(N3C(=O)/C(=C/c4ccccc4)N=C3c3ccccc3)cc2c1", "Assigned class": 0.0}
{"Compound": "Cc1ccc2c(c1)nc(N)n[n+]2[O-]", "Assigned class": 0.0}

====

- Test system: OVCAR-8
- Experiment description: NCI tumour cell line growth inhibition, 48 h
Activity calls are given as the source filed them. Cut-off read from the data, not from the text of the source: active = GI50 up to about 1.1 µM and inactive = higher.
Outcome codes: true = active, false = inactive

{"Compound": "CCCCCCc1cc2cc(C(=O)Nc3ccc(F)cc3)c(=N)oc2cc1O", "Assigned class": "false"}
{"Compound": "N#C/C(=C/N1C(=O)/C(=C/c2ccc([N+](=O)[O-])cc2)SC1=S)c1nc2ccccc2s1", "Assigned class": "false"}
{"Compound": "CCOC(=O)/C(O)=C1\\C(=O)N(C)C(=O)C1c1cccc(OC)c1 (configuration not stated)", "Assigned class": "false"}
{"Compound": "C=C(C)CCC(O)[C@](C)(O)[C@H]1[C@H](O)C[C@@]2(C)[C@@H]3CCc4c(cc(OC5OC(CO)C(O)C(O)C5O)c(O)c4C)C3(C)C(=O)C[C@]12C (some centres not stated)", "Assigned class": "false"}
{"Compound": "NC(=O)N/C=C1\\C(=O)Oc2ccccc2C1=O", "Assigned class": "false"}
{"Compound": "NC(=O)NC(=O)c1cccc(NC(=O)CI)c1", "Assigned class": "true"}
{"Compound": "c1ccc(-c2nnc(SCc3c[nH]c4ccccc34)n2-c2ccccc2)cc1", "Assigned class": "false"}

====

In this section, each of the molecules is paired with its reported GI50.
- Tested on: KM12
- Experiment description: NCI tumour cell line growth inhibition, 48 h
The source made the active and inactive calls. No stated cut-off is given here; in the data, active = GI50 up to about 1.1 µM and inactive = higher.
Endpoint label: GI50

{"Mol smiles": "O=S(=O)(Nc1nc2ccccc2nc1Nc1cccc2ccccc12)c1ccccc1", "Endpoint label": "GI50", "Observed": "5.61 µM (inactive)"}
{"Mol smiles": "CC(C)(Oc1ccc(/C=C/C(=O)c2ccc(Cl)cc2)cc1)C(=O)Nc1c(Cl)cccc1Cl", "Endpoint label": "GI50", "Observed": "11.8 µM (inactive)"}
{"Mol smiles": "O=C(CSc1nc(=O)c(-c2ccccc2NC(=O)C(F)(F)F)n[nH]1)NC(=O)Nc1ccccc1", "Endpoint label": "GI50", "Observed": "> 100 µM (inactive)"}

====

- Test system: K562
- Experiment description: NCI tumour cell line growth inhibition, 48 h
Activity calls are given as the source filed them. No stated cut-off is given here; in the data, active = GI50 up to about 1.1 µM and inactive = higher.
Outcome codes: true = active, false = inactive

{"Compound": "O=[N+]([O-])/C(C(Cl)=C(Cl)Cl)=C1\\Nc2ccc([N+](=O)[O-])cc2N1", "Assigned class": "false"}
{"Compound": "CC1=C(O)C(=O)C2C(=O)C1C(C)C2c1ccc(C)cc1 (stereo not given)", "Assigned class": "false"}
{"Compound": "NC(=O)N/C=C1\\C(=O)Oc2ccccc2C1=O", "Assigned class": "false"}
{"Compound": "OC(c1cc2ccccc2[nH]1)C1(c2cccnc2)SCCCS1 (stereo not given)", "Assigned class": "false"}
{"Compound": "O=c1[nH]c2cc(-c3ccccc3)nc-2nn1-c1c(Cl)cc(Cl)cc1Cl", "Assigned class": "false"}
{"Compound": "O=[N+]([O-])c1ccc2c(c1)S(=O)(=O)N1Cc3ccccc3CCN21", "Assigned class": "false"}
{"Compound": "O=c1[nH]c(Br)nc2c(N3CCCCC3)c[nH]c12", "Assigned class": "false"}
{"Compound": "CNCCCNc1c2ccccc2nc2cccc([N+](=O)[O-])c12", "Assigned class": "true"}
{"Compound": "C=CCNC(=O)N(CCCC(NC(C)=O)C(=O)NCc1ccccc1)Cc1ccccc1 (stereo not given)", "Assigned class": "false"}
{"Compound": "Cc1cc(Cl)cc2c1NC(=O)/C2=N\\Nc1ccccc1[N+](=O)[O-]", "Assigned class": "false"}
{"Compound": "CCCC(=O)NC1CCc2cc(OC)c(OC)c(OC)c2-c2ccc(OC)c(=O)cc21 (stereo not given)", "Assigned class": "true"}
{"Compound": "C=C=C(C(=O)OC)[S+]([O-])c1ccccc1[N+](=O)[O-] (stereo not given)", "Assigned class": "false"}
{"Compound": "CNCCCNC(=S)Cn1cc(C)c(=O)[nH]c1=O", "Assigned class": "false"}
{"Compound": "CCCCCCC(=O)C/C(CCC(=O)N(Cc1ccccc1)Cc1ccccc1)=N\\Nc1ccc([N+](=O)[O-])cc1[N+](=O)[O-]", "Assigned class": "false"}
{"Compound": "CC(O)C1(CNc2cc(Cl)nc(N)n2)CC(CCc2ccccc2)C1 (stereo not given)", "Assigned class": "false"}
{"Compound": "COC(=O)C1=C(C(=O)OC)SC(=CC#CC=C2SC(C(=O)OC)=C(C(=O)OC)S2)S1", "Assigned class": "false"}
{"Compound": "Cc1ccc2c(c1)C=CC(C#N)N2C(=O)Oc1ccccc1 (stereo not given)", "Assigned class": "false"}
{"Compound": "COc1ccc(/C=c2\\sc3nnc(CCC(=O)Nc4cccc(C(F)(F)F)c4)n3c2=O)cc1", "Assigned class": "false"}
{"Compound": "O=C1NC(=O)C(C(c2ccc(Cl)cc2)C2C(=O)NC(=O)NC2=O)C(=O)N1.c1ccncc1", "Assigned class": "false"}
{"Compound": "O=c1[nH]nc(-c2ccc3ccccc3c2)[nH]1", "Assigned class": "false"}
{"Compound": "COc1ccccc1C1c2cc3c(cc2OC(N2CCOCC2)C1C)OCO3 (stereo not given)", "Assigned class": "false"}
{"Compound": "CC(=O)NC(CCCN(Cc1ccccc1)C(=O)NCCCl)C(=O)NCc1ccccc1 (stereo not given)", "Assigned class": "false"}
{"Compound": "CC1=CC(=O)/C(=C/n2c(=S)[nH]c3ccccc32)C(=O)O1", "Assigned class": "false"}
{"Compound": "O=C(O)/C=C\\C(=O)Nc1ccccn1", "Assigned class": "false"}
{"Compound": "CCOP(=O)(OCC)C(Nc1cccc([N+](=O)[O-])c1)c1ccccc1 (stereo not given)", "Assigned class": "false"}

====

- Test system: OVCAR-4
- Experiment description: NCI tumour cell line growth inhibition, 48 h
Activity calls are given as the source filed them. Rule as the data show it: active = GI50 up to about 1.1 µM and inactive = higher.
Endpoint label: GI50

{"Molecule": "COCC1OC(Sc2ccccc2)C(O)C(OC)C1OC (stereo unspecified)", "Observed": "> 100 µM (inactive)"}
{"Molecule": "CSc1nc(C#N)c(N)n1C", "Observed": "> 100 µM (inactive)"}
{"Molecule": "O=S(=O)(Nc1nc2ccccc2nc1Nc1cccc2ccccc12)c1ccccc1", "Observed": "1.24 µM (inactive)"}
{"Molecule": "CNCCCNC(=S)Cn1cc(C)c(=O)[nH]c1=O", "Observed": "> 53.2 µM (inactive)"}
{"Molecule": "O=[N+]([O-])c1ccc2c(c1)S(=O)(=O)N1Cc3ccccc3CCN21", "Observed": "> 100 µM (inactive)"}
{"Molecule": "COc1cccc2c1C(=O)c1c(O)c3c(c(O)c1C2=O)CC(O)(C(O)CO)CC3OC1CC2C(OC3COCC(C#N)N32)C(C)O1 (stereo unspecified)", "Observed": "< 0.01 µM (active)"}
{"Molecule": "CCc1cccc(C(C)C)c1NC(=O)CC1Sc2ccccc2NC1=O (stereo unspecified)", "Observed": "76.2 µM (inactive)"}
{"Molecule": "Cc1cc(Cl)cc2c1NC(=O)/C2=N\\Nc1ccccc1[N+](=O)[O-]", "Observed": "> 100 µM (inactive)"}
{"Molecule": "CCCC(c1cc(C(C)(C)C)c(O)cc1C)c1cc(C(C)(C)C)c(O)cc1C", "Observed": "5.13 µM (inactive)"}
{"Molecule": "O=C(CC(O)(C(F)(F)F)C(F)(F)F)C(CCCl)C(O)(C(F)(F)F)C(F)(F)F (stereo unspecified)", "Observed": "49.2 µM (inactive)"}
{"Molecule": "O=[N+]([O-])C(/C=C(\\Cl)n1nnc2ccccc21)=C(/Cl)n1nnc2ccccc21", "Observed": "> 100 µM (inactive)"}
{"Molecule": "CC(C)c1cccc(C(C)C)c1NC(=S)NN=C1C=C(C(C)(C)C)C(=O)C(C(C)(C)C)=C1", "Observed": "17.3 µM (inactive)"}
{"Molecule": "CNCCCNc1c2ccccc2nc2cccc([N+](=O)[O-])c12", "Observed": "0.00174 µM (active)"}
{"Molecule": "CC(C)(C)C1CCC2(CC1)CCN(CCCN1CCOCC1)CC2", "Observed": "> 93.8 µM (inactive)"}
{"Molecule": "Nc1nc(Cl)cc(NCC2(CO)CCC(O)C2)n1 (stereo unspecified)", "Observed": "> 100 µM (inactive)"}
{"Molecule": "COc1ncc(C#CC(=O)c2ccccc2)c(OC)n1", "Observed": "4.7 µM (inactive)"}
{"Molecule": "NC(=O)N/C=C1\\C(=O)Oc2ccccc2C1=O", "Observed": "> 100 µM (inactive)"}
{"Molecule": "Cn1c(CO)ccc1-c1ccc(-c2ccc[se]2)[se]1", "Observed": "0.043 µM (active)"}
{"Molecule": "CCC12C=CCN3CC[C@]4(C(=C(C(=O)OC)[C@@H]1Nc1ccn(C5OC(COC(C)=O)C(OC(C)=O)C5OC(C)=O)c(=O)n1)Nc1ccccc14)C32 (stereo partly specified)", "Observed": "1.72 µM (inactive)"}
{"Molecule": "CCCc1c2c([nH]c(=O)c1C)C(=O)c1[nH]c(=O)c(C)c(CCC)c1C2=O", "Observed": "12.2 µM (inactive)"}
{"Molecule": "CCc1nc(N)nc(N)c1-c1ccc([N+](=O)[O-])c(Cl)c1", "Observed": "46.5 µM (inactive)"}
{"Molecule": "COc1cc(C(c2cc3c(cc2O)OCO3)N2CCCC2)cc(OC)c1OC (stereo unspecified)", "Observed": "17 µM (inactive)"}
{"Molecule": "CC(C)C(=O)NS(=O)(=O)c1ccccc1", "Observed": "> 100 µM (inactive)"}
{"Molecule": "O=C1N/C(=N/N=C/c2ccccc2)N/C1=C\\c1c[nH]c2ccccc12", "Observed": "> 100 µM (inactive)"}
{"Molecule": "CCNc1ncnc2nn[nH]c12", "Observed": "> 100 µM (inactive)"}
{"Molecule": "COc1cc(/C=C\\c2ccc(Br)cc2)cc(OC)c1OC", "Observed": "0.0622 µM (active)"}
{"Molecule": "O=C1C(Cl)=C(N2CCN(c3ccccn3)CC2)C(=O)c2ncccc21", "Observed": "1.87 µM (inactive)"}
{"Molecule": "OC(CC1CCCCN1)c1ccc2c(c1)oc1ccccc12 (stereo unspecified)", "Observed": "94.2 µM (inactive)"}
{"Molecule": "N#C/C(=C/N1C(=O)/C(=C/c2ccc([N+](=O)[O-])cc2)SC1=S)c1nc2ccccc2s1", "Observed": "29.7 µM (inactive)"}
{"Molecule": "C=C(C)CCC(O)[C@](C)(O)[C@H]1[C@H](O)C[C@@]2(C)[C@@H]3CCc4c(cc(OC5OC(CO)C(O)C(O)C5O)c(O)c4C)C3(C)C(=O)C[C@]12C (stereo partly specified)", "Observed": "> 100 µM (inactive)"}
{"Molecule": "O=C(c1ccccc1)N1N=C(C(F)(F)F)CC1(O)C(F)(F)F (stereo unspecified)", "Observed": "> 100 µM (inactive)"}
{"Molecule": "O=C1/C(=C/c2ccc(O)c(O)c2)CC/C1=C\\c1ccc(O)c(O)c1", "Observed": "5.33 µM (inactive)"}
{"Molecule": "O=C(Nc1sccc1S(=O)(=O)c1ccc(Cl)cc1)c1ccc(F)cc1F", "Observed": "21.2 µM (inactive)"}
{"Molecule": "CC1OC(OC2C(O[C@H]3CC[C@@]4(C)C(=CC[C@H]5[C@@H]6C[C@@H]7O[C@]8(CC[C@@H](C)CO8)[C@@H](C)[C@@H]7[C@@]6(C)CC[C@@H]54)C3)OC(CO)C(O)C2OC2OC(CO)C(O)C(O)C2O)C(O)C(O)C1O (stereo partly specified)", "Observed": "1.58 µM (inactive)"}
{"Molecule": "O=C(O)CCNC(=O)c1cc(N(CCBr)CCBr)c([N+](=O)[O-])cc1[N+](=O)[O-]", "Observed": "> 100 µM (inactive)"}
{"Molecule": "CC1=CC(=O)/C(=C/n2c(=S)[nH]c3ccccc32)C(=O)O1", "Observed": "> 100 µM (inactive)"}

Values from ChEMBL document CHEMBL1201862
